system: TYKNU; assay: fractional viability relative to vehicle; higher = less growth inhibition; conditions: 2uM; 72 h; genotype: DNM1L knockout (sgDNM1L #1)
Where a name gives a salt, the structure may show the parent alone. Over roughly 2,000 compounds, “fractional viability relative to vehicle” has its median near 0.91; the lowest 2% begin near 0.045. The sample as a whole holds a higher share of the lowest values than the screen did.
# label = fulfilled if fractional viability < 0.8 else not fulfilled

Item CN(C)c1ccc(C(=C2C=CC(=[N+](C)C)C=C2)c2ccc(N(C)C)cc2)cc1 [Crystal Violet] : fractional viability beneath 0.8, strictly?
fulfilled

Field entry: CCCSc1nc(N[C@@H]2C[C@H]2c2ccc(F)c(F)c2)c2nnn([C@@H]3C[C@H](OCCO)[C@@H](O)[C@H]3O)c2n1 [Ticagrelor]
not fulfilled

Field entry: O=C1N=C(O)NC1(c1ccccc1)c1ccccc1 [Phenytoin sodium]
not fulfilled

Field entry: O=C(c1ccc(Nc2nccc(-c3cc4ccccc4s3)n2)cc1)N1CCC(N2CCCC2)CC1 [IKK-16 (IKK Inhibitor VII)]
not fulfilled

Field entry: C=CC(=O)N1C/C(=C\c2ccc([N+](=O)[O-])cc2)C(=O)/C(=C/c2ccc([N+](=O)[O-])cc2)C1
fulfilled

Field entry: C/C=C1/[C@H](O[C@@H]2O[C@H](CO)[C@@H](O)[C@H](O)[C@H]2O)OC=C(C(=O)OC)[C@H]1CC(=O)OCCc1ccc(O)c(O)c1 [Oleuropein]
fulfilled

Field entry: C[C@H]1O[C@@H](n2cc(F)c(=O)[nH]c2=O)[C@H](O)[C@@H]1O [Doxifluridine]
not fulfilled

Field entry: Cc1ccc(-n2sc(=O)n(Cc3ccc(F)cc3)c2=O)cc1
not fulfilled

Field entry: CCCCc1oc2ccccc2c1C(=O)c1cc(I)c(OCCN(CC)CC)c(I)c1 [Amiodarone HCl]
not fulfilled

Field entry: O=C(Nc1ccccc1-c1cn2c(CN3CCNCC3)csc2n1)c1cnc2ccccc2n1
fulfilled

Field entry: Fc1ccc(CNc2ncnc3ccc(F)cc23)cc1 [Spautin-1]
fulfilled

Field entry: CC(=O)c1cc2c(o1)C(=O)c1ccccc1C2=O [Napabucasin]
fulfilled

Field entry: CCCCc1oc2ccc(NS(C)(=O)=O)cc2c1C(=O)c1ccc(OCCCN(CCCC)CCCC)cc1 [Dronedarone HCl]
fulfilled

Field entry: CC[C@H](C)C[C@H](C)CCCCCCCCC(=O)N[C@H]1C[C@@H](O)[C@@H](NCCN)NC(=O)[C@@H]2[C@@H](O)CCN2C(=O)[C@H]([C@H](O)CCN)NC(=O)[C@H]([C@H](O)[C@@H](O)c2ccc(O)cc2)NC(=O)[C@@H]2C[C@@H](O)CN2C(=O)[C@H]([C@@H](C)O)NC1=O [Caspofungin Acetate]
not fulfilled

Field entry: CCOc1ccc(Cc2cc([C@@H]3O[C@H](SC)[C@@H](O)[C@H](O)[C@H]3O)ccc2Cl)cc1 [Sotagliflozin (LX4211)]
not fulfilled

Field entry: O=C(c1ccc(C(=O)N2CCC(N3CCCC3)CC2)c(Nc2ccccc2)c1)N1CCC(N2CCCC2)CC1
not fulfilled

Field entry: CN1CCN(Cc2ccc(Nc3ncc(Cl)c(Nc4ccccc4S(=O)(=O)N(C)C)n3)cc2)CC1
fulfilled

Field entry: CN(C)Cc1cccc(N=C(c2ccccc2)c2c(O)[nH]c3cc(C(=O)N(C)C)ccc23)c1
not fulfilled

Field entry: COc1ccc(-c2cnc3c(-c4cccc5ncccc45)cnn3c2)cc1
not fulfilled

Field entry: c1cc(-c2cnn3cc(-c4ccc(N5CCNCC5)cc4)cnc23)c2cccnc2c1
fulfilled

Field entry: O=C(NCC1(c2nc(-c3ccccc3)cs2)CCOCC1)c1cccc(-c2noc(C(F)(F)F)n2)c1
fulfilled

Field entry: FC(F)(F)c1ccc(/C=C/c2nc(COc3ccc(CCCCn4ccnn4)cc3)co2)cc1 [Mubritinib (TAK 165)]
fulfilled

Field entry: CNCc1ccc(-c2cc(-c3nc(-c4ccc(S(=O)(=O)C(C)C)cc4)cnc3N)on2)cc1
not fulfilled

Field entry: CCN1CCN(Cc2ccc(Nc3ncc(F)c(-c4cc(F)c5nc(C)n(C(C)C)c5c4)n3)nc2)CC1
fulfilled

Field entry: CCc1cc(Nc2nccc(-c3c(-c4ccc(OC)c(C(=O)Nc5c(F)cccc5F)c4)nc4ccccn34)n2)c(OC)cc1N1CCC(N2CCN(S(C)(=O)=O)CC2)CC1
not fulfilled

Field entry: CC1(C)C=C(CN2C/C(=C\c3ccc(F)cc3)C(=O)/C(=C/c3ccc(F)cc3)C2)C(C)(C)N1O
fulfilled

Field entry: CC(C)Oc1ccc(C(=O)N[C@H](CNC(=O)CN(C)C)Cc2ccc(-c3cn4cccc([C@H](C)O)c4n3)cc2)cc1Cl
fulfilled

Field entry: COc1cc2c(cc1OC)CN(CCc1ccc(NC(=O)c3cc(OC)c(OC)cc3NC(=O)c3cnc4ccccc4c3)cc1)CC2 [Tariquidar]
fulfilled

Field entry: COc1ccc(-c2cc3c(C)nc(N)nc3n([C@H]3CC[C@H](OCCO)CC3)c2=O)cn1
fulfilled

* * *

test system: TYKNU; test: fractional viability relative to vehicle; higher = less growth inhibition; details: 10uM; 72 h; genotype: DNM1L knockout (sgDNM1L #1)
The full ranking holds about 2,000 compounds; the median of “fractional viability relative to vehicle” is about 0.91, and the lowest 2% start at about 0.045. The entries come from a sample that favours the lowest values as a whole.
Kindly state fractional viability for each of the entries shown.
Form field (numeric): enter value without unit.

I'd like to know its fractional viability. The compound in question is Cc1nn(C)c2c1C(c1ccc(C(F)(F)F)cc1)C(C#N)=C(N)O2 (stereo not given)
0.886

Field entry: CCN1CCN(Cc2ccc(C(=O)Nc3ccc(C)c(Oc4ccc5c(c4)CC(=O)N5)c3)cc2C(F)(F)F)CC1
0.477

Field entry: Cc1ccc(NC(=O)Nc2cc(C(F)(F)F)ccc2F)cc1Nc1ccc2c(c1)NC(=O)/C2=C\c1ccc[nH]1
0.918

Field entry: CC(C)(C)C[C@@H]1N[C@@H](C(=O)N[C@H]2CC[C@H](O)CC2)[C@H](c2cccc(Cl)c2F)[C@]12C(=O)Nc1cc(Cl)ccc12
0.259

Field entry: O=C(O)c1cc2cccc([N+](=O)[O-])c2[nH]1
0.957

* * *

system: TYKNU; test: fractional viability relative to vehicle; TYKNU is a high-grade serous ovarian cancer line; higher = less growth inhibition; details: 10uM; 72 h; genotype: DNM1L knockout (sgDNM1L #1)
Counter-ions that a name gives are not always drawn. Whole data set: some 2,000 compounds, median “fractional viability relative to vehicle” near 0.91, cut for the lowest 2% near 0.045. Shown is part of a subset that was picked to be rich in the lowest values.
readout type: fractional viability
Form field (numeric): enter value without unit.

I'd like to know its fractional viability. The molecule in question is COc1cc(/C=C/C(=O)N2CCN(CC(=O)N3CCCC3)CC2)cc(OC)c1OC [Cinepazide maleate]
1.1

Field entry: O=C(Nc1cccc(Cl)c1)c1ccccn1
0.971

Field entry: COc1ccc(/C=C\c2cc(OC)c(OC)c(OC)c2)cc1O
0.111

Field entry: CN(C)CCNC(=O)c1cccn2c(=O)c3cc4ccccc4cc3nc12
0.107

Field entry: CCc1cccc(CC)c1NC(=O)N1Cc2[nH]nc(NC(=O)c3ccc(N4CCN(C)CC4)cc3)c2C1
0.359

Field entry: CCO[C@@H]1OC(=O)C[C@@H]1NC(=O)[C@@H]1CCCN1C(=O)[C@@H](NC(=O)c1ccc(N)c(Cl)c1)C(C)(C)C
0.898

Field entry: Nc1ccc(-c2ccc3ncc4ccc(=O)n(-c5cccc(C(F)(F)F)c5)c4c3c2)cn1
0.114

Field entry: CC(CNC(=O)c1cccnc1)NC(=O)c1cccnc1 (centres undefined)
0.726

Field entry: CC(C)OC(=O)C1=CN(C(=O)c2ccc(F)c(F)c2)CC(C)(C)c2c1[nH]c1ccccc21
0.865

Field entry: Clc1ccc(NN=C(c2ccccc2)c2ccccn2)nc1
0.0355

Field entry: CCC[S+]([O-])c1ccc2[nH]c(NC(=O)OC)nc2c1 (centres undefined) [Albendazole Oxide]
0.505

Field entry: Cc1nnc(C(=O)NC(C)(C)c2nc(C(=O)NCc3ccc(F)cc3)c(O)c(=O)n2C)o1
0.879

Field entry: Cn1sc(=O)n(Cc2ccccc2)c1=O
0.0256

Field entry: CC(C)Oc1ccc(C(=O)N[C@H](CNC(=O)CN(C)C)Cc2ccc(-c3cn4cccc([C@H](C)O)c4n3)cc2)cc1Cl
0.29

Field entry: Cc1ccc(-n2sc(=O)n(Cc3ccc(F)cc3)c2=O)cc1
0.469

Field entry: O=C(Nc1cccc(Cl)c1)Nc1ncc(CCNc2ncnc3ccsc23)s1 [SNS-314 Mesylate]
0.644

Field entry: COc1cc(/C=C/C(=O)N2CCC=CC2=O)cc(OC)c1OC
0.0446

Field entry: O=C(c1ccccc1)c1ccc2nc(NC(=O)c3csc(C4CCN(c5ncnc6ccsc56)CC4)n3)[nH]c2c1
0.481

Field entry: C/C(=N\NC(=S)N1CCC1)c1ccccn1
0.225
